Target: human M2 receptor (Homo sapiens, UniProt P08172)
Sequence (P08172 1-466): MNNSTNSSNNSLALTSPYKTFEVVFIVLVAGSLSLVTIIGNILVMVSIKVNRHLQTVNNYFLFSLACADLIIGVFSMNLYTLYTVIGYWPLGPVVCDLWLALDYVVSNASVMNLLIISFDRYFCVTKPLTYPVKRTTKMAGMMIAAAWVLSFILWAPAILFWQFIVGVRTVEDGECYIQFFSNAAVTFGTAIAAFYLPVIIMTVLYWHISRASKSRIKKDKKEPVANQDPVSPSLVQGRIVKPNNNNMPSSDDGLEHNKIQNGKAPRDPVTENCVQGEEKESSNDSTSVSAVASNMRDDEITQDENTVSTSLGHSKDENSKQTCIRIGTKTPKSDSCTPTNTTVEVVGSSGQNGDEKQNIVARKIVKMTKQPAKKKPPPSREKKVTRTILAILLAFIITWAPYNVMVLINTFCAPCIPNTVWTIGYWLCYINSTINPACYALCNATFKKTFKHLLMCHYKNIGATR
Assay: Functional M2-GIRK1/4 activation test: allosteric potency (EC50) and efficiency at EC20 acetylcholine
Details: CHO-DUKX-M2-GIRK cells; voltage-sensitive dye; acetylcholine at EC20; in some cases mean of two or more determinations
EC50 reference
Measurement kind: EC50 (nM)

O=C(NC(C1CC1)C(F)(F)C(F)(F)F)c1cn(-c2c(F)cc(F)cc2F)c2nc(N3C[C@@H](O)[C@H](O)C3)c(F)cc2c1=O (single isomer, unassigned) [Example 201] = 1.6
O=C(NC(C1CC1)C1CC1)c1cn(-c2c(F)cc(F)cc2F)c2nc(N3C[C@@H](O)[C@H](O)C3)c(F)cc2c1=O [Example 21] = 3
CC(C)(CC(F)(F)F)NC(=O)c1cn(-c2c(F)cc(F)cc2F)c2nc(N3CC[C@H](O)C3)c(F)cc2c1=O [Example 107] = 3.55
CN(C)c1nc2c(cc1F)c(=O)c(C(=O)NC(C)(C)CC(F)(F)F)cn2-c1c(F)cc(F)cc1F [Example 63] = 3.9
CN(C)c1nc2c(cc1F)c(=O)c(C(=O)NC(C)(C)C)cn2-c1c(F)cc(F)cc1F [Example 60] = 3.6
CCC(C)(C)NC(=O)c1cn(-c2ncc(F)cc2F)c2nc(N3C[C@@H](O)[C@H](O)C3)c(F)cc2c1=O [Example 75] = 87

---

Biological target: human M2 receptor (Homo sapiens, UniProt P08172)
Sequence (P08172 1-466): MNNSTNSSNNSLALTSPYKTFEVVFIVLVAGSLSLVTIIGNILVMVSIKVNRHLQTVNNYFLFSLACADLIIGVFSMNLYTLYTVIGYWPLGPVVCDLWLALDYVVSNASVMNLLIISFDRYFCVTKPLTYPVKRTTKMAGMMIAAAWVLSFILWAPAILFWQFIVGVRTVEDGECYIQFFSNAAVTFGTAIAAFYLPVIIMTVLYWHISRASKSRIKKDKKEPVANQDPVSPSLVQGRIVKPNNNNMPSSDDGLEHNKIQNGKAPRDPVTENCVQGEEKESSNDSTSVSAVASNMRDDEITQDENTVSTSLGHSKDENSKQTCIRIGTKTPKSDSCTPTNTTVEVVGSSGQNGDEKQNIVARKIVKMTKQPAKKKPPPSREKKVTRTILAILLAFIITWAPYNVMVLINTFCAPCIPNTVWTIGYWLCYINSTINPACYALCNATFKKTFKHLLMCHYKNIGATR
Assay: Functional M2-GIRK1/4 activation test: allosteric potency (EC50) and efficiency at EC20 acetylcholine
Conditions: CHO-DUKX-M2-GIRK cells; voltage-sensitive dye; acetylcholine at EC20; in some cases mean of two or more determinations
pEC50: −log10 of the molar value.
Would you please tag the item t when its pEC50 is 8 or above, and f when it is below?

O=C(NC(C1CC1)C(F)(F)C(F)(F)F)c1cn(-c2c(F)cc(F)cc2F)c2nc(N3C[C@@H](O)[C@H](O)C3)c(F)cc2c1=O (single isomer, unassigned) [Example 202] = t
CCC(NC(=O)c1cn(-c2c(F)cc(F)cc2F)c2nc(N3C[C@@H](O)[C@H](O)C3)c(Br)cc2c1=O)C(F)(F)C(F)(F)F (mixture of isomers) = t
O=C(N[C@@H](C1CC1)C(F)(F)F)c1cn(-c2c(F)cc(F)cc2Cl)c2nc(N3C[C@@H](O)[C@H](O)C3)c(F)cc2c1=O (single isomer, unassigned) [Example 51] = f
CC(C)(NC(=O)c1cn(-c2ncc(F)cc2F)c2nc(N3CC[C@H](O)C3)c(F)cc2c1=O)C(F)(F)F = f

// provenance: patent US11472803B2
